Provenance of the data: ChEMBL document CHEMBL1130477

Listing of entries alongside the reported Relative hydrolysis.
Target: UniProt P22412
Sequence (P22412 whole entry): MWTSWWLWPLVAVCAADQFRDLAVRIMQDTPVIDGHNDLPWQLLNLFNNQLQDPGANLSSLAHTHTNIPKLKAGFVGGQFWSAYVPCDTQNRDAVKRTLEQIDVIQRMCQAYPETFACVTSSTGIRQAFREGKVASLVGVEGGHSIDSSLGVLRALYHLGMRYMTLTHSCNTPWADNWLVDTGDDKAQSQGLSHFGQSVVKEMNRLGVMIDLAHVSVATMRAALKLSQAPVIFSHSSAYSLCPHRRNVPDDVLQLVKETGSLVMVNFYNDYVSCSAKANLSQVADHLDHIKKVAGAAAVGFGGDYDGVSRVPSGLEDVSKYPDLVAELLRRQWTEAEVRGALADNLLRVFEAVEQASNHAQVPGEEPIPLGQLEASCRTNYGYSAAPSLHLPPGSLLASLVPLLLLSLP
Experiment: Stability towards hog kidney dehydropeptidase (DHP) expressed as relative hydrolysis to imipenem

Consider the reported Relative hydrolysis for these molecules:
Known value: UniProt P22412 Relative hydrolysis of the molecule `COC(=O)[C@H]1O[C@H](CN)[C@H]1SC1=C(C(=O)O)N2C(=O)[C@H]([C@@H](C)O)[C@H]2[C@H]1C` equals < 1

Known value: UniProt P22412 Relative hydrolysis of the molecule C[C@@H](O)[C@H]1C(=O)N2C(C(=O)O)=C(SCCNC=N)C[C@H]12 [IMIPENEM ANHYDROUS] equals 100

Known value: UniProt P22412 Relative hydrolysis of the molecule `COC(=O)[C@H]1O[C@H](COS(=O)(=O)c2ccc(C)cc2)[C@H]1SC1=C(C(=O)[O-])N2C(=O)[C@H]([C@@H](C)O)[C@H]2[C@H]1C.[Na+]` equals < 1

As a next step, examine the molecule that follows.
Known value: UniProt P22412 Relative hydrolysis of the molecule `COC(=O)[C@H]1O[C@H](CO)[C@H]1SC1=C(C(=O)[O-])N2C(=O)[C@H]([C@@H](C)O)[C@H]2[C@H]1C.[Na+]` equals < 1

----------
System: Staphylococcus aureus
Experiment: In vitro antibacterial activity against Staphylococcus aureus strain GC 2220, expressed as MIC(minimum inhibitory concentration)
Format: functional
property name: MIC (µg/mL)
Give just the numeric value; µg/mL need not be written.

Consider the reported MIC for these compounds:
In plain terms, C[C@@H](O)[C@H]1C(=O)N2C(C(=O)O)=C(SCCNC=N)C[C@H]12 [IMIPENEM ANHYDROUS] has a documented MIC of 1

In plain terms, C[C@H]1C(S[C@@H]2[C@@H](C)O[C@@H]2CN)=C(C(=O)[O-])N2C(=O)[C@H]([C@@H](C)O)C12.[Na+] (some centres undefined) has a documented MIC of 8

Next:
In plain terms, CC1C(S[C@@H]2CCO[C@@H]2CN)=C(C(=O)O)N2C(=O)[C@H]([C@@H](C)O)[C@@H]12 (single isomer, unassigned) has a documented MIC of 2
